Tested on: MCF7 breast
method-description: NCI-60 one-dose screen, 48 h (100 = growth as untreated, 0 = no growth, -100 = all killed)
test-parameters: 10 µM
Compounds without any hit were thinned out: in the full panel of roughly 83,000, 20% have a hit.
Quick reference: growth of the listed items.
Response body: numeric value in %, unit text excluded.

Use the examples below as a reference point.
CCN(CC)CCSCCCNc1c2ccc(Cl)cc2nc2ccc(OC)cc12 = -33
CO/N=C(/C(=O)NC1C(=O)N2C(C(=O)O)=C(COC(N)=O)CSC12)c1ccco1 (stereo not given) = 94.2
CS(=O)(=O)Nc1ccc(Nc2c3ccccc3nc3cc(N)ccc23)cc1 = 6.57
C#Cc1ccc(-n2c(/C=C/c3ccc4ccccc4n3)nc3ncccc3c2=O)cc1 = 6.42

# input for lookup
// growth lookup, molecule = CCC(=O)N1C/C(=C/c2ccc(Br)cc2)C(=O)/C(=C/c2ccc(Br)cc2)C1 , result: -16.1

----------
System: SF-539 CNS
method-description: NCI-60 one-dose screen, 48 h (100 = growth as untreated, 0 = no growth, -100 = all killed)
test-parameters: 10 µM
This is part of a sample that, as a whole, favours compounds with a hit. Of some 83,000 tested, about 20% had one in any assay.
readout-type: growth (%)
Response body: numeric value in %, unit text excluded.

Use the examples below as a reference point.
CCN(CC)CCC(=O)Nc1cccc2c1C(=O)c1c(c(O)c3ccccc3c1O)C2=O = 38
Nc1ccc2cc(S(=O)(=O)O)cc(O)c2c1N=Nc1ccc(F)cc1 = 95.9

// growth lookup, molecule = CN(C)C(=S)N/N=C\C=N/NC(=S)N(C)C , result: 84.6

// growth lookup, molecule = COc1ccc(C2=Nc3c(C)nn(-c4ccccc4)c3NC(c3ccc(Oc4ccnc5cc(Cl)ccc45)c(OC)c3)C2)cc1 (stereo not given) , result: 92.2

// growth lookup, molecule = COC(=O)c1c(-c2ccccc2)csc1NC(=O)c1c(-c2ccccc2)noc1C , result: 33.2

----------
Quick reference: growth of the listed items.
Tested on: RXF 393 renal
method-description: NCI-60 one-dose screen, 48 h (100 = growth as untreated, 0 = no growth, -100 = all killed)
test-parameters: 10 µM
About 83,000 compounds went through this panel and 20% of them were active in at least one assay; those are over-represented in the sample as a whole.
Response body: numeric value in %, unit text excluded.

Use the examples below as a reference point.
O=C(Nc1cccc(-n2cc(-c3ccncc3)c(-c3ccc(O)c(Cl)c3)n2)c1)Nc1ccc(Cl)c(Cl)c1 = -26.2
CC(=O)n1c(-c2ccc(Cl)c(Cl)c2)cn(-c2ccc(Cl)cc2)c1=O = -31.2
Cc1cc(C)c(NC(=O)c2sc3nc4c(cc3c2N)C(=O)CCC4)c(C)c1 = -6.66
CCN(CC)CCNC(=O)c1ccc(NC(C)=O)cc1 = 109
Clc1ccc(Nc2ccnc(NCCCNc3ccnc4cc(Cl)ccc34)n2)cc1 = -89.3
FC(F)(F)c1ccc(-c2cnc(-n3cc(COCCN4CCCCC4)nn3)nc2NC2CCCCCC2)cc1 = -3.46
Clc1ccc(/C=C2\CCCC3=C2N=C2SC=NN2C3c2ccc(Cl)cc2)cc1 (stereo not given) = 105
CN(C)c1ccc(/C=C/C=N/NC(=O)c2cc(O)c(O)c(O)c2)cc1 = 99.4
COc1cc2c(cc1OC)N(CCO)C1=C(C(=O)OC1)C2c1ccc(Cl)c(Cl)c1 (stereo not given) = 97.8

# input for lookup
// growth lookup, compound = C#Cc1ccc(-n2c(/C=C/c3ccc(O)c(OC)c3)nc3ncccc3c2=O)cc1 , result: 100

From: PubChem BioAssay (NCI)
